All values here come from paper PMC4788153.

# testSummary: Chiral plasma pharmacokinetics of MDMA and its phase I and II metabolites after controlled MDMA administration
# Assay type: in vivo, human
# runConditions: bupropion-pretreated EMs
Counter-ions that a name gives are not always drawn.
Quick list: metabolite/MDMA ratio, mean initial (highest, first hour) per entry.
The answer should be written as a number, with no unit following it.

Study these solved cases before continuing.
CNC(C)Cc1ccc(OC2OC(C(=O)O)C(O)C(O)C2O)c(OC)c1 (centres unmarked) [R-HMMA glucuronide]
0.09
CN[C@H](C)Cc1ccc(O)c(OS(=O)(=O)O)c1 [R-DHMA 3-sulfate]
0.4

INPUT: Provide only the value of recorded metabolite/MDMA ratio, mean initial (highest, first hour) for CN[C@@H](C)Cc1ccc(OS(=O)(=O)O)c(O)c1 [S-DHMA 4-sulfate]
OUTPUT: 0.60

INPUT: Output metabolite/MDMA ratio, mean initial (highest, first hour) of CN[C@H](C)Cc1ccc(OS(=O)(=O)O)c(O)c1 [R-DHMA 4-sulfate]
OUTPUT: 0.89

INPUT: Consider the molecule CN[C@H](C)Cc1ccc(OS(=O)(=O)O)c(OC)c1 [R-HMMA sulfate] and give its recorded metabolite/MDMA ratio, mean initial (highest, first hour).
OUTPUT: 0.31

INPUT: Supply recorded metabolite/MDMA ratio, mean initial (highest, first hour) for CN[C@@H](C)Cc1ccc(OS(=O)(=O)O)c(OC)c1 [S-HMMA sulfate] here.
OUTPUT: 0.26

INPUT: Please give the documented metabolite/MDMA ratio, mean initial (highest, first hour) of CNC(C)Cc1ccc(OC2OC(C(=O)O)C(O)C(O)C2O)c(OC)c1 (centres unmarked) [S-HMMA glucuronide]
OUTPUT: 0.10

INPUT: Item CN[C@@H](C)Cc1ccc(O)c(OS(=O)(=O)O)c1 [S-DHMA 3-sulfate] : provide metabolite/MDMA ratio, mean initial (highest, first hour)
OUTPUT: 1.8
